B1: ATGL (PNPLA2, patatin-like phospholipase domain-containing protein 2), human, full length / perilipin-1, mouse (mPlin1) (parent)
chain 1: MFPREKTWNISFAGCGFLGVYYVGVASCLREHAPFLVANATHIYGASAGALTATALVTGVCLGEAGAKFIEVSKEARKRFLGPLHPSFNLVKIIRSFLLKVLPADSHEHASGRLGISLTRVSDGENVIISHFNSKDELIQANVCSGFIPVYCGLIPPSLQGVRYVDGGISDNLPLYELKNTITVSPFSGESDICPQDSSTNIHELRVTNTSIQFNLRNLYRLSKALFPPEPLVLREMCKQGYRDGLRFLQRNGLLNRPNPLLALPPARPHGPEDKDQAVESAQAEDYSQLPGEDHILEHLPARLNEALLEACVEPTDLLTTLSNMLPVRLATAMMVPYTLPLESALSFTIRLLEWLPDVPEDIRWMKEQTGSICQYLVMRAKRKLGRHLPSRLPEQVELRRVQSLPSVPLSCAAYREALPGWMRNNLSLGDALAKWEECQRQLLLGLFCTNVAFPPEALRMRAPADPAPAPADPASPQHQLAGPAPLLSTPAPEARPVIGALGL
chain 2: MSMNKGPTLLDGDLPEQENVLQRVLQLPVVSGTCECFQKTYNSTKEAHPLVASVCNAYEKGVQGASNLAAWSMEPVVRRLSTQFTAANELACRGLDHLEEKIPALQYPPEKIASELKGTISTRLRSARNSISVPIASTSDKVLGATLAGCELALGMAKETAEYAANTRVGRLASGGADLALGSIEKVVEFLLPPDKESAPSSGRQRTQKAPKAKPSLVRRVSTLANTLSRHTMQTTAWALKQGHSLAMWIPGVAPLSSLAQWGASAAMQVVSRRQSEVRVPWLHNLAASQDESHDDQTDTEGEETDDEEEEEESEAEENVLREVTALPNPRGLLGGVVHTVQNTLRNTISAVTWAPAAVLGTVGRILHLTPAQAVSSTKGRAMSLSDALKGVTDNVVDTVVHYVPLPRLSLMEPESEFRDIDNPSAEAERKGSGARPASPESTPRPGQPRGSLRSVRGLSAPSCPGLDDKTEASARPGFLAMPREKPARRVSDSFFRPSVMEPILGRAQYSQLRKKS

Variants of: B1
Test: LUMIER: Protein A-ATGL variant and firefly luciferase-partner co-expressed in HEK293T, lysates immunoprecipitated on IgG-coated plates, co-precipitated partner measured as luciferase luminescence
Conditions: with perilipin-1, mouse (mPlin1), transient co-transfection, IgG-coated LUMITRAC plates, 2 h at 4 °C, three PBS washes, Bright-Glo luciferase reagent, triplicates per assay, two …, parent: -0.37, not graded, scale: log2 fold change of co-immunoprecipitated luminescence relative to wild-type ATGL within each experiment
assay_metric: screen value

Lookup: Return screen value for the following variant: chain 1 G66A
Found: 0.198

Lookup: Return screen value for the following variant: chain 1 L159A
Found: 0.395

Lookup: Return screen value for the following variant: chain 1 G153A
Found: -0.215

Lookup: Return screen value for the following variant: chain 1 V127L
Found: -0.288

Lookup: Return screen value for the following variant: chain 1 P103K
Found: -0.898

Lookup: Return screen value for the following variant: chain 1 G189E
Found: -1.43

Lookup: Return screen value for the following variant: chain 1 K275A
Found: -0.709

Lookup: Return screen value for the following variant: chain 1 F35E
Found: -0.197

Lookup: Return screen value for the following variant: chain 1 I70K
Found: -0.759

Lookup: Return screen value for the following variant: chain 1 S158E
Found: -0.376
